# Assay Method Text: Microsomal stability
# Format: in vitro ADME, mouse
# Details: % recovered after 60 min, mouse liver microsomes
Quick reference for microsomal stability among some molecules
Readout: microsomal stability (%)

• Cc1cccc(CC(=O)N[C@@H](Cc2ccc(C(F)(F)F)cc2)Cc2nnn[nH]2)c1 [Compound 8] = 89
• O=C(O)C[C@H](Cc1ccc(C(F)(F)F)cc1)NC(=O)Cc1cccc(Cl)c1 [Compound 3, reference compound] = 91
• COc1cccc(CC(=O)N[C@@H](Cc2ccc(C(F)(F)F)cc2)Cc2nnn[nH]2)c1 [Compound 16l] = 93
• O=C(Cc1cccc(Cl)c1)N[C@@H](Cc1ccc(C(F)(F)F)cc1)Cc1nnn[nH]1 [Compound 16e] = 92
• O=C(Cc1cncc(Br)c1)N[C@@H](Cc1ccc(C(F)(F)F)cc1)Cc1nnn[nH]1 [Compound 16w] = 92

====

# Assay Method Text: Lipophilicity (logD7.4), octanol/PBS7.4 shake flask
# Type: physicochemical
# Details: 1-octanol/PBS7.4, pH 7.4; mean of two independent experiments
Each entry below lists one item and its recorded logD at 25 h value.
Readout: logD at 25 h

* O=C(Cc1cncc(Br)c1)N[C@@H](Cc1ccc(C(F)(F)F)cc1)Cc1nnn[nH]1 [Compound 16w] | 0.71
* O=C(Cc1cccc(Cl)c1)N[C@@H](Cc1ccc(C(F)(F)F)cc1)Cc1nnn[nH]1 [Compound 16e] | 1.8
* O=C(O)C[C@H](Cc1ccc(C(F)(F)F)cc1)NC(=O)Cc1cccc(Cl)c1 [Compound 3, reference compound] | 1.39
* COc1cccc(CC(=O)N[C@@H](Cc2ccc(C(F)(F)F)cc2)Cc2nnn[nH]2)c1 [Compound 16l] | 0.84
* Cc1cccc(CC(=O)N[C@@H](Cc2ccc(C(F)(F)F)cc2)Cc2nnn[nH]2)c1 | 1.26

====

# System Name: human FFA2-eYFP (Homo sapiens, UniProt O15552)
# Construct: expressed in transfected cells; host or cells: membranes of Flp-In T-Rex 293 cells induced to express the construct
# Sequence (O15552 1-330): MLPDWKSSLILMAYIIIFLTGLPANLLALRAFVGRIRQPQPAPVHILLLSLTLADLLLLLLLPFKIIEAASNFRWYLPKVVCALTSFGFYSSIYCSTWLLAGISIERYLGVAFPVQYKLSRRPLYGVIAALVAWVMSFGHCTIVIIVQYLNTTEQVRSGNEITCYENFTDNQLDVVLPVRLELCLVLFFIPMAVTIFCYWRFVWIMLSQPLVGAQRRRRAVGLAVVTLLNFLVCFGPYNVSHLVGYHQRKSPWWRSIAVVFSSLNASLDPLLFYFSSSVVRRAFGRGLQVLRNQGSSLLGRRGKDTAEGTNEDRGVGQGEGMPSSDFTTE
# Assay Method Text: [35S]GTPγS incorporation assay, membranes of Flp-In T-Rex 293 cells
# Assay type: biochemical
# Details: hFFA2, propionate at EC80; mean ± SEM, three or more experiments
# Description: The activity of the compounds on FFA2 was evaluated in two different functional antagonist assays, both using propionate at EC80 as the agonist. […] Functional activity of the compounds were tested in a [^35S]GTPγS incorporation assay using membranes of Flp-In T-Rex 293 cells induced to express human FFA2-eYFP. […] MicroScint-20 (PerkinElmer) was added to dried filters, and [^35S]GTPγS binding was quantified by liquid scintillation spectroscopy.
Measured GTPγS pIC50 accompanies every entry in the list below.
Readout: GTPγS pIC50

• O=C(N[C@@H](Cc1ccc(C(F)(F)F)cc1)Cc1nnn[nH]1)C1Cc2ccccc21 (stereo partly drawn) [Compound 16b] = 8.06
• Cc1cccc(CC(=O)N[C@@H](Cc2ccc(C(F)(F)F)cc2)Cc2nnn[nH]2)c1 [Compound 8] = 8.07
• O=C(Cc1ccccn1)N[C@@H](Cc1ccc(C(F)(F)F)cc1)Cc1nnn[nH]1 [Compound 16r] = 6.71

====

# Assay Method Text: Pharmacokinetic study in mice
# Type: in vivo
# Details: male, BALB/cAnC, mouse, plasma, iv admin 5 mg/kg
Readout: half-life

• COc1cccc(CC(=O)N[C@@H](Cc2ccc(C(F)(F)F)cc2)Cc2nnn[nH]2)c1 [Compound 16l] = 24 min

====

# System Name: hFFA2 (Homo sapiens, UniProt O15552)
# Construct: expressed in transfected cells; host or cells: Flp-In T-Rex 293 cells, doxycycline-induced
# Sequence (O15552 1-330): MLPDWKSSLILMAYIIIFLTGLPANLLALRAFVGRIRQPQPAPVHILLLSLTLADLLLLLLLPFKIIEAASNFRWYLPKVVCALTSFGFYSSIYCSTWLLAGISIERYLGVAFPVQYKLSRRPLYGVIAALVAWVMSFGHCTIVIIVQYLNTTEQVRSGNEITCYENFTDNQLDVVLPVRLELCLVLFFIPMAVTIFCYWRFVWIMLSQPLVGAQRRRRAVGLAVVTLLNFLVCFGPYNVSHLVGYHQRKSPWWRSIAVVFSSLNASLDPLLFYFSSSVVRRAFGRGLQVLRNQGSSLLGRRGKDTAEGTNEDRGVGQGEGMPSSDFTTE
# Assay Method Text: cAMP assay, antagonist mode, Flp-In T-Rex 293 cells expressing hFFA2-eYFP
# Format: cell-based
# Details: supplementary CSV; read-out: hFFA2 cAMP (pIC50) (converted)
Readout: IC50 (µM)

- O=C(Cc1ccc(Cl)nc1)N[C@@H](Cc1ccc(C(F)(F)F)cc1)Cc1nnn[nH]1 [Compound 16v]: 0.0955
- O=C(Cc1cccc(C(F)(F)F)c1)N[C@@H](Cc1ccc(C(F)(F)F)cc1)Cc1nnn[nH]1 [Compound 16i]: 0.0158
- O=C(Cc1ccccn1)N[C@@H](Cc1ccc(C(F)(F)F)cc1)Cc1nnn[nH]1 [Compound 16r]: 1.45
- O=C(Cc1cccc(Cl)c1)N[C@H](CCc1nnn[nH]1)Cc1ccc(C(F)(F)F)cc1 [Compound 21]: 0.0309
- O=C(Cc1cccc(Cl)c1)N[C@@H](Cc1ccc(C(F)(F)F)cc1)Cc1nnn[nH]1 [Compound 16e]: 0.00661
- O=C(CCc1ccccc1)N[C@@H](Cc1ccc(C(F)(F)F)cc1)Cc1nnn[nH]1 [Compound 16q]: 0.186
- CCCCCC(=O)N[C@@H](Cc1ccc(C(F)(F)F)cc1)Cc1nnn[nH]1 [Compound 16p]: 0.355
- O=C(Cc1cccc(F)c1)N[C@@H](Cc1ccccc1)Cc1nnn[nH]1 [Compound 16d]: 0.102

====

Catalogue of compounds with associated solubility at 24 h
# Assay Method Text: Kinetic aqueous solubility
# Format: physicochemical
# Details: phosphate buffer; kinetic solubility in PBS at pH 7.4 and 25 °C
Readout: solubility at 24 h (µM)

- O=C(Cc1cccc(Cl)c1)N[C@@H](Cc1ccc(C(F)(F)F)cc1)Cc1nnn[nH]1 [Compound 16e]: 138
- Cc1cccc(CC(=O)N[C@@H](Cc2ccc(C(F)(F)F)cc2)Cc2nnn[nH]2)c1: 163
- O=C(Cc1cccc(Br)c1)N[C@@H](Cc1ccc(C(F)(F)F)cc1)Cc1nnn[nH]1 [Compound 16g]: 121
- O=C(Cc1cccc(I)c1)N[C@@H](Cc1ccc(C(F)(F)F)cc1)Cc1nnn[nH]1 [Compound 16h]: 81
- O=C(Cc1cncc(Br)c1)N[C@@H](Cc1ccc(C(F)(F)F)cc1)Cc1nnn[nH]1 [Compound 16w]: 183
- O=C(O)C[C@H](Cc1ccc(C(F)(F)F)cc1)NC(=O)Cc1cccc(Cl)c1 [Compound 3, reference compound]: 166
- COc1cccc(CC(=O)N[C@@H](Cc2ccc(C(F)(F)F)cc2)Cc2nnn[nH]2)c1 [Compound 16l]: 176

====

The reader will find reported LLEGTPγS values listed item by item below.
# System Name: human FFA2-eYFP (Homo sapiens)
# Construct: expressed in transfected cells; host or cells: membranes of Flp-In T-Rex 293 cells induced to express the construct
# Sequence (O15552 1-330): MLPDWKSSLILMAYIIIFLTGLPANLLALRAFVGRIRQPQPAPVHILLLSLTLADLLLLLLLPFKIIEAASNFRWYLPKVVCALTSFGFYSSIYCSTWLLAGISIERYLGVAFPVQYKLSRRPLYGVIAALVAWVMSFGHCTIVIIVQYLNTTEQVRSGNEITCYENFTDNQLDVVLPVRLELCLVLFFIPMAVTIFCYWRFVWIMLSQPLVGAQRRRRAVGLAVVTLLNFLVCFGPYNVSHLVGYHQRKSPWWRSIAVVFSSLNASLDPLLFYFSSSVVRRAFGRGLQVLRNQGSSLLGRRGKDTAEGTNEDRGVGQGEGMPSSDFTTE
# Assay Method Text: [35S]GTPγS incorporation assay, membranes of Flp-In T-Rex 293 cells
# Assay type: biochemical
# Details: pIC50, GTPγS – ClogP
Readout: LLEGTPγS

- O=C(Cc1cccc(I)c1)N[C@@H](Cc1ccc(C(F)(F)F)cc1)Cc1nnn[nH]1 [Compound 16h]: 4.69
- O=C(Cc1ccc(Cl)cc1)N[C@@H](Cc1ccc(C(F)(F)F)cc1)Cc1nnn[nH]1 [Compound 16f]: 4.79
- O=C(Cc1cccc(Cl)c1)N[C@@H](Cc1ccc(C(F)(F)F)cc1)Cc1nnn[nH]1 [Compound 16e]: 5.25
- Cc1cccc(CC(=O)N[C@@H](Cc2ccc(C(F)(F)F)cc2)Cc2nnn[nH]2)c1: 5.01
- O=C(Cc1ccncc1)N[C@@H](Cc1ccc(C(F)(F)F)cc1)Cc1nnn[nH]1 [Compound 16t]: 5.40
- O=C(Cc1ccccn1)N[C@@H](Cc1ccc(C(F)(F)F)cc1)Cc1nnn[nH]1 [Compound 16r]: 5.64
- O=C(Cc1cncc(Br)c1)N[C@@H](Cc1ccc(C(F)(F)F)cc1)Cc1nnn[nH]1 [Compound 16w]: 6.28
- O=C(Cc1cccc(Br)c1)N[C@@H](Cc1ccc(C(F)(F)F)cc1)Cc1nnn[nH]1 [Compound 16g]: 4.87
- O=C(Cc1cccc(F)c1)N[C@@H](Cc1ccc(C(F)(F)F)cc1)Cc1nnn[nH]1 [Compound 16c]: 5.42
- CCOc1cccc(CC(=O)N[C@@H](Cc2ccc(C(F)(F)F)cc2)Cc2nnn[nH]2)c1 [Compound 16m]: 5.04
- O=C(Cc1cccc(OC(F)(F)F)c1)N[C@@H](Cc1ccc(C(F)(F)F)cc1)Cc1nnn[nH]1 [Compound 16n]: 3.91
- O=C(CC1CCCC1)N[C@@H](Cc1ccc(C(F)(F)F)cc1)Cc1nnn[nH]1 [Compound 16o]: 2.89
- O=C(O)C[C@H](Cc1ccc(C(F)(F)F)cc1)NC(=O)Cc1cccc(Cl)c1 [Compound 3, reference compound]: 2.47
- O=C(Cc1cccnc1)N[C@@H](Cc1ccc(C(F)(F)F)cc1)Cc1nnn[nH]1 [Compound 16s]: 6.22
- COc1cccc(CC(=O)N[C@@H](Cc2ccc(C(F)(F)F)cc2)Cc2nnn[nH]2)c1 [Compound 16l]: 5.98
- O=C(Cc1cccc(Cl)c1)N[C@H](CCc1nnn[nH]1)Cc1ccc(C(F)(F)F)cc1: 3.92
